Consider the following sequences; for each one, report its recombinant UMI read abundance (log10).
# experimentalProtocol: recombinant UMI read abundance after kanamycin selection (control-corrected) (log10(CPM+1)); higher = more efficient recombination; extreme values may be limits of the assay; sequences stand for … in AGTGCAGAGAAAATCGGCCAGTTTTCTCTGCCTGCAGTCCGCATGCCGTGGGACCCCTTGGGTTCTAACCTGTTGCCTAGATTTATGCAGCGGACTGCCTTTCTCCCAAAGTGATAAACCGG…AGGTTGGTTTCACT; site = the 11-nt donor

Briefly, recombinant UMI read abundance (log10) measured for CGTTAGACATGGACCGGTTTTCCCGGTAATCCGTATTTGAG (site CGTTAGACTCA) : 0.0196

sequence AATGCGTCATGGACCGGTTTTCCCGGTAATCCGTATTTGAC (site AATGCGTCTGT) , recombinant UMI read abundance (log10) observed: 2.03

So for ACTAATGCATGGACCGGTTTTCCCGGTAATCCGTATTTGGT (site ACTATTGCTAC) , the logged recombinant UMI read abundance (log10) turned out to be 0.568

The sequence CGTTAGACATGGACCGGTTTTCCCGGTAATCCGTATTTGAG (site CGTGAGACTCT) showed recombinant UMI read abundance (log10) equal to 0.0124

recombinant UMI read abundance (log10) reading for CGTTTGGCATGGACCGGTTTTCCCGGTAATCCGTATTTGCT (site CGTTTGTCTAG) : 0

Short answer for TTCTGTCCATGGACCGGTTTTCCCGGTAATCCGTATTTGCG (site TTCTGTCCTCG) : recombinant UMI read abundance (log10) was 0.00535

The reported recombinant UMI read abundance (log10) of the sequence TTAGCGGCATGGACCGGTTTTCCCGGTAATCCGTATTTGTG (site TTAGCAGCTCA) was 0.356

Input TATTGATCATGGACCGGTTTTCCCGGTAATCCGTATTTGTG (site TATTGATCTCA) . Output recombinant UMI read abundance (log10): 0.805

Entry CACTGGGCATGGACCGGTTTTCCCGGTAATCCGTATTTGGA (site CACTAGGCTTC) ; recombinant UMI read abundance (log10) = 0.812

Recorded recombinant UMI read abundance (log10) (sequence CGGTATCCATGGACCGGTTTTCCCGGTAATCCGTATTTGTC (site CGGTATCCTGA) ): 0

The sequence listed as CTGGTGGCATGGACCGGTTTTCCCGGTAATCCGTATTTGTT (site CTGGTGGCTAA) shows recombinant UMI read abundance (log10) equal to 0.723

Record summary for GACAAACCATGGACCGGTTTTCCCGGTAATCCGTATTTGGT (site GACAAACCTAT) : reported recombinant UMI read abundance (log10) = 0

Entry ATTGCCGCATGGACCGGTTTTCCCGGTAATCCGTATTTGTC (site ATTGCCGCTGA) , recombinant UMI read abundance (log10) reported as 0.656

recombinant UMI read abundance (log10) in this record for AGGTTCTCATGGACCGGTTTTCCCGGTAATCCGTATTTGTG (site AGGTTCCCTCA) : 0.22

Query TGGACAGCATGGACCGGTTTTCCCGGTAATCCGTATTTGCT (site TGGACAGCTAG) yields recombinant UMI read abundance (log10) of 2.26

Record ATCCCTACATGGACCGGTTTTCCCGGTAATCCGTATTTGAG (site ATCCCTACTCT) . Reported recombinant UMI read abundance (log10): 0.465

Entry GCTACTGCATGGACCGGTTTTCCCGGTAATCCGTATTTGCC (site GCAACTGCTGG) ; recombinant UMI read abundance (log10) = 0

For AAACAGACATGGACCGGTTTTCCCGGTAATCCGTATTTGGA (site AAACAGACTTC) the sequence record lists recombinant UMI read abundance (log10) as 0.991

---

# experimentalProtocol: recombinant barcode read abundance after kanamycin selection (control-corrected) (log10(CPM+1)); higher = more efficient recombination; sequences stand for … in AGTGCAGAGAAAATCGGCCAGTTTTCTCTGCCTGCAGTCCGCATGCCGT…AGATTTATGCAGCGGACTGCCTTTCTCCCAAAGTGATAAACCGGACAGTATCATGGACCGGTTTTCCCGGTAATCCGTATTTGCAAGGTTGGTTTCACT; site = the 11-nt target
Label met for high-side recombinant barcode read abundance (log10) (at or above 0.2) and not met for low-side recombinant barcode read abundance (log10) (below it).

-- ask For this sequence, is measured recombinant barcode read abundance (log10) 0.2 or higher? CCTGCGACTTGGGTTCTAACCTGTTGCAC (site AAGCACCCTCA)
-- reply not met

-- ask Assess whether reported recombinant barcode read abundance (log10) for CCTGACTCTTGGGTTCTAACCTGTTGCAC (site CCTGACTCTGT) sits at 0.2 or higher.
-- reply met

-- ask For this sequence, is measured recombinant barcode read abundance (log10) 0.2 or higher? GGTGCTCCTTGGGTTCTAACCTGTTGCAC (site GGTGCTCCTTT)
-- reply met

-- ask Confirm if recombinant barcode read abundance (log10) reported for the sequence CGTCCACCTTGGGTTCTAACCTGTTGCCT (site TGTCCACCTAG) is 0.2 or above.
-- reply met

-- ask Determine whether this sequence has recombinant barcode read abundance (log10) no lower than 0.2: GAACGACCTTGGGTTCTAACCTGTTGCCT (site AAACGACCTAG)
-- reply met

---

# experimentalProtocol: recombinant barcode read abundance after kanamycin selection (control-corrected) (log10(CPM+1)); higher = more efficient recombination; sequences stand for … in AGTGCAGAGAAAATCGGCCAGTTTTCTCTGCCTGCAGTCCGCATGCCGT…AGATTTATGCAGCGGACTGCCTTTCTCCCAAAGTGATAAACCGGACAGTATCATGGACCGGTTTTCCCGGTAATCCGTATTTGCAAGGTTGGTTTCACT; site = the 11-nt target
Decide by recombinant barcode read abundance (log10): equal to or exceeding 0.1 means y, less means n.

-- ask Does AAGCAAACTTGGGTTCTAACCTGTTGCCT (site AAGCTAACTAG) have a reported recombinant barcode read abundance (log10) of at least 0.1?
-- reply y

-- ask Is reported recombinant barcode read abundance (log10) greater than or equal to 0.1 here: TTGTGAGCTTGGGTTCTAACCTGTTGCGG (site TTGTGAGCTCC)
-- reply y

-- ask API: above_or_equal(metric=recombinant barcode read abundance (log10), cutoff=0.1) for item GTAGACCCTTGGGTTCTAACCTGTTGCCG (site GTTGACCCTAG)
-- reply y

-- ask Is recombinant barcode read abundance (log10) at least 0.1? Consider AGACTGACTTGGGTTCTAACCTGTTGCGG (site TCCAAATCTAG)
-- reply y

-- ask Quick check, recombinant barcode read abundance (log10) >= 0.1? GTGTACCCTTGGGTTCTAACCTGTTGCGT (site GTGTACCCTAC)
-- reply y

-- ask Given TGCCAGCCTTGGGTTCTAACCTGTTGCCT (site TGCCAGCCTAG) , state whether its recombinant barcode read abundance (log10) is at least 0.1.
-- reply n

-- ask // inclusive: recombinant barcode read abundance (log10) at least 0.1? input: TGCGTGTCTTGGGTTCTAACCTGTTGCTG (site TACGTGTCTTA)
-- reply n

-- ask Does the reported recombinant barcode read abundance (log10) for GACCGAGCTTGGGTTCTAACCTGTTGCCT (site GACCGAGCTAG) fall at or above the 0.1 mark?
-- reply y

-- ask API: above_or_equal(metric=recombinant barcode read abundance (log10), cutoff=0.1) for item GAAGCCGCTTGGGTTCTAACCTGTTGCCT (site GAAGCCGCTAG)
-- reply y

-- ask Dear colleague, could you confirm whether GGGACGACTTGGGTTCTAACCTGTTGCTT (site GGGACGACTTA) has recombinant barcode read abundance (log10) at or above 0.1?
-- reply n

-- ask // inclusive: recombinant barcode read abundance (log10) at least 0.1? input: TCTCCGCCTTGGGTTCTAACCTGTTGCCT (site TCTCTGCCTAG)
-- reply n

-- ask Does recombinant barcode read abundance (log10) meet or surpass 0.1 for GGAGTTGCTTGGGTTCTAACCTGTTGCCT (site GGAGTTGCTAG) ?
-- reply y

-- ask Please check the record TCCGAGGCTTGGGTTCTAACCTGTTGCTG (site TCGGAGGCTCA) and state if its recombinant barcode read abundance (log10) is at or above 0.1.
-- reply y

-- ask Please check the record CCTGGGACTTGGGTTCTAACCTGTTGCTA (site CCTGGGACTTA) and state if its recombinant barcode read abundance (log10) is at or above 0.1.
-- reply y

-- ask Textbook exercise: given the entry ATCGGGCCTTGGGTTCTAACCTGTTGCCT (site ATCGGGCCTAG) , state whether its recombinant barcode read abundance (log10) is greater than or equal to 0.1.
-- reply y

-- ask Check this sequence for recombinant barcode read abundance (log10) at or above 0.1: CGCTGTCCTTGGGTTCTAACCTGTTGCTT (site CGCTGTCCTAA)
-- reply y

-- ask State whether the measured recombinant barcode read abundance (log10) reaches 0.1, counting equality as reaching it, for TAAAAGGCTTGGGTTCTAACCTGTTGCCT (site TAAAAGCCTAG)
-- reply n

-- ask Reported recombinant barcode read abundance (log10) at or above 0.1? CTAGACTCTTGGGTTCTAACCTGTTGCTA (site CTAGACTCTCA)
-- reply y

-- ask recombinant barcode read abundance (log10) >= 0.1 for CAAAGTCCTTGGGTTCTAACCTGTTGCTT (site CAAAGTCCTAT) ?
-- reply y

-- ask Has ACAGTCGCTTGGGTTCTAACCTGTTGCCT (site ACAGTCGCTAG) a recorded recombinant barcode read abundance (log10) greater than or equal to 0.1?
-- reply y

-- ask Does the sequence AGTCTCCCTTGGGTTCTAACCTGTTGCCT (site AGACTCCCTAG) have recorded recombinant barcode read abundance (log10) that is 0.1 or more?
-- reply y

-- ask recombinant barcode read abundance (log10) >= 0.1 for CTAGCCGCTTGGGTTCTAACCTGTTGCTT (site CTAGCCGCTAA) ?
-- reply y

-- ask Is reported recombinant barcode read abundance (log10) greater than or equal to 0.1 here: ACTGATTCTTGGGTTCTAACCTGTTGCCT (site ACTGATACTAG)
-- reply y

-- ask Hi, just wondering whether CCAACCGCTTGGGTTCTAACCTGTTGCCT (site CAAACCGCTAG) shows recombinant barcode read abundance (log10) of 0.1 or higher.
-- reply n

-- ask Is recombinant barcode read abundance (log10) for GAACTCTCTTGGGTTCTAACCTGTTGCTA (site CCTAAAACTAG) at or above 0.1?
-- reply n

-- ask Given CTCGTCACTTGGGTTCTAACCTGTTGCCT (site CTCGTCACTAG) , state whether its recombinant barcode read abundance (log10) is at least 0.1.
-- reply y

-- ask Kindly determine if recombinant barcode read abundance (log10) recorded for TCGCGTCCTTGGGTTCTAACCTGTTGCAG (site TCGCGTCCTCT) is above or exactly 0.1.
-- reply y

-- ask Record CCAAGGGCTTGGGTTCTAACCTGTTGCTG (site CCAAGGGCTCG) ; criterion: recombinant barcode read abundance (log10) no lower than 0.1. Met?
-- reply n

-- ask // inclusive: recombinant barcode read abundance (log10) at least 0.1? input: AGGAATTCTTGGGTTCTAACCTGTTGCCT (site AGCAATTCTAG)
-- reply y

-- ask Textbook exercise: given the entry CCGTCTACTTGGGTTCTAACCTGTTGCTG (site CCGTCTACTTA) , state whether its recombinant barcode read abundance (log10) is greater than or equal to 0.1.
-- reply y

-- ask Given TCCTATTCTTGGGTTCTAACCTGTTGCGA (site TACTATGCTTC) , state whether its recombinant barcode read abundance (log10) is at least 0.1.
-- reply y

-- ask hey, is recombinant barcode read abundance (log10) for this one >= 0.1? ACTAACCCTTGGGTTCTAACCTGTTGCCT (site AGTAACCCTAG)
-- reply n

-- ask Is it the case that CTGTCTACTTGGGTTCTAACCTGTTGCCT (site CCGTCTACTAG) has recombinant barcode read abundance (log10) reaching or exceeding 0.1?
-- reply y

-- ask Entry TTCTGCGCTTGGGTTCTAACCTGTTGCCT (site TTCTGGGCTAG) : is its recombinant barcode read abundance (log10) no less than 0.1?
-- reply n

-- ask Does GACGTAGCTTGGGTTCTAACCTGTTGCCT (site GGCGTAGCTAG) have a reported recombinant barcode read abundance (log10) of at least 0.1?
-- reply y

-- ask recombinant barcode read abundance (log10) >= 0.1 for AATTCACCTTGGGTTCTAACCTGTTGCCT (site AATTCACCTAG) ?
-- reply y

-- ask Given TCCTGTACTTGGGTTCTAACCTGTTGCAT (site TCCTGTACTAT) , state whether its recombinant barcode read abundance (log10) is at least 0.1.
-- reply y

-- ask Quick check: does TAGCACCCTTGGGTTCTAACCTGTTGCCC (site TAGCACCCTAG) have recombinant barcode read abundance (log10) greater than or equal to 0.1?
-- reply y

-- ask Would you say AATTGTCCTTGGGTTCTAACCTGTTGCCT (site AATTGTCCTAT) shows recombinant barcode read abundance (log10) at minimum 0.1?
-- reply n

-- ask Hello, I need to know if TCCATCCCTTGGGTTCTAACCTGTTGCTA (site TCCATCCCTTA) has measured recombinant barcode read abundance (log10) not below 0.1. Thanks!
-- reply y

-- ask In plain terms: is recorded recombinant barcode read abundance (log10) at least 0.1 for TGTTGGCCTTGGGTTCTAACCTGTTGCCT (site TGTTGCACTAG) ?
-- reply n
